Source listed as patent US20240309103A1.

Target or test system: T1, hNPR1-mFc:hBNP complex (human, UniProt P16860 103-134)
T1 construct: also called human NPR1 complexed to BNP
Assay summary: SPR, mAb captured, 25C
Procedure: Equilibrium dissociation constant (KD) for different NPR1 reagents binding to purified anti-NPR1 monoclonal antibodies (mAbs) were determined using a real-time surface plasmon resonance based Biacore 4000 biosensor. All binding studies were performed in 10 mM HEPES, 150 mM NaCl, 3 mM EDTA, and 0.05% v/v Surfactant Tween-20, pH 7.4 (HBS-ET) running buffer at 25° C. and 37° C. […]
Measure: kon (M⁻¹ s⁻¹)
Numbers only, in M⁻¹ s⁻¹.

Exercise: Query: kon; subject: mAb25508 (antibody, human IgG4, V domains shown) VH: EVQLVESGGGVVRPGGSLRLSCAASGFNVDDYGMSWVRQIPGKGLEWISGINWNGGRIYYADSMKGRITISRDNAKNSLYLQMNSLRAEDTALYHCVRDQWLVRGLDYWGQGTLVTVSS VL: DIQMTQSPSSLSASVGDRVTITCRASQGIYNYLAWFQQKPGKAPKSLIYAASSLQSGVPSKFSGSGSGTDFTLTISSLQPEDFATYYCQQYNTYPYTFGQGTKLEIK
Solution: 250000
